# target system: EGFR del19/T790M/C797S (Homo sapiens, UniProt P00533, C797S/DEL746-750/T790M)
# Sequence (P00533 with tags, fused parts or gaps DEL746-750/T790M/C797S): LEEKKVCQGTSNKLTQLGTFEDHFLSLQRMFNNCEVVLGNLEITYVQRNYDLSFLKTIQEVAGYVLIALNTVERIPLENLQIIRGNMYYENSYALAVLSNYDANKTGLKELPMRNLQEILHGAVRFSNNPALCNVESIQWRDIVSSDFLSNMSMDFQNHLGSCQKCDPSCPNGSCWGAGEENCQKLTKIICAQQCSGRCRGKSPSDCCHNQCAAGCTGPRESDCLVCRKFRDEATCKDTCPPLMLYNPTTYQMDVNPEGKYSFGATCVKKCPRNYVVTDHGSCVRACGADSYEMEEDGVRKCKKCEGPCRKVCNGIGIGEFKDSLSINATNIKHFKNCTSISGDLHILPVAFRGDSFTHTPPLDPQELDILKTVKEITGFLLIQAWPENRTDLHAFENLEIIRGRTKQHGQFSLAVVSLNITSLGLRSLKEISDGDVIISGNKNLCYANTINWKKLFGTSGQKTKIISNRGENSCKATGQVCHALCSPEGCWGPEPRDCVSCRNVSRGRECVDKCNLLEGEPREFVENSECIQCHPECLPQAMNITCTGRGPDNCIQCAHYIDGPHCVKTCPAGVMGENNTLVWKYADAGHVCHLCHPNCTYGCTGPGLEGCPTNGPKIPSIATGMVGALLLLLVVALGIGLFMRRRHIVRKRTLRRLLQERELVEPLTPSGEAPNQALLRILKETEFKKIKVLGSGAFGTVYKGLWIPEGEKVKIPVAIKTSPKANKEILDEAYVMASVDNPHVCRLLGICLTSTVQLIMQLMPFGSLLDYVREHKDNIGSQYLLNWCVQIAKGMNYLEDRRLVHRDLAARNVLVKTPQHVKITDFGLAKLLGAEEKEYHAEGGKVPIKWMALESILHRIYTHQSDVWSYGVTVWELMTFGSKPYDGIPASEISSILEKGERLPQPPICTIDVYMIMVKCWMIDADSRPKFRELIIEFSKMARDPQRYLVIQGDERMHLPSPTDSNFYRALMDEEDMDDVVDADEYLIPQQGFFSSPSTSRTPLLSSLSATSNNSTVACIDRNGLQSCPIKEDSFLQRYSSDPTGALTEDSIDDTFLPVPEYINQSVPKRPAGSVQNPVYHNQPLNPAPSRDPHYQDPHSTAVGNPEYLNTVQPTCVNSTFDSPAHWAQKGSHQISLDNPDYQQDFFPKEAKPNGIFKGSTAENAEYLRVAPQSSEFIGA
# assay: Biochemical EGFR kinase assay (Lance Ultra TR-FRET), del19/T790M/C797S
# condition notes: IC50 del19/T790M/C797S (nM) 100 μM ATP, 100 μM ATP
measured endpoint: IC50 (nM)

[P] C[C@]1(O)CC[C@@H](Nc2cc(Nc3ccnc(-c4cnn(S(=O)(=O)C5CC5)c4)n3)ncc2C(=O)C(F)F)CC1
[Q] C[C@]1(O)CC[C@@H](Nc2cc(Nc3ccnc(-c4cnn(S(=O)(=O)C5CC5)c4)n3)ncc2C(=O)CC2CCOCC2)CC1
Challenge: Returns the identifier with the smallest measured IC50 among P and Q . The response must carry the label of the picked entry.
Response given: Q
(Q: 0.6 nM, P: 1 nM)

###

# target system: EGFR L858R/C797S (Homo sapiens, UniProt P00533, C797S/L858R)
# Sequence (P00533 25-1210 C797S/L858R): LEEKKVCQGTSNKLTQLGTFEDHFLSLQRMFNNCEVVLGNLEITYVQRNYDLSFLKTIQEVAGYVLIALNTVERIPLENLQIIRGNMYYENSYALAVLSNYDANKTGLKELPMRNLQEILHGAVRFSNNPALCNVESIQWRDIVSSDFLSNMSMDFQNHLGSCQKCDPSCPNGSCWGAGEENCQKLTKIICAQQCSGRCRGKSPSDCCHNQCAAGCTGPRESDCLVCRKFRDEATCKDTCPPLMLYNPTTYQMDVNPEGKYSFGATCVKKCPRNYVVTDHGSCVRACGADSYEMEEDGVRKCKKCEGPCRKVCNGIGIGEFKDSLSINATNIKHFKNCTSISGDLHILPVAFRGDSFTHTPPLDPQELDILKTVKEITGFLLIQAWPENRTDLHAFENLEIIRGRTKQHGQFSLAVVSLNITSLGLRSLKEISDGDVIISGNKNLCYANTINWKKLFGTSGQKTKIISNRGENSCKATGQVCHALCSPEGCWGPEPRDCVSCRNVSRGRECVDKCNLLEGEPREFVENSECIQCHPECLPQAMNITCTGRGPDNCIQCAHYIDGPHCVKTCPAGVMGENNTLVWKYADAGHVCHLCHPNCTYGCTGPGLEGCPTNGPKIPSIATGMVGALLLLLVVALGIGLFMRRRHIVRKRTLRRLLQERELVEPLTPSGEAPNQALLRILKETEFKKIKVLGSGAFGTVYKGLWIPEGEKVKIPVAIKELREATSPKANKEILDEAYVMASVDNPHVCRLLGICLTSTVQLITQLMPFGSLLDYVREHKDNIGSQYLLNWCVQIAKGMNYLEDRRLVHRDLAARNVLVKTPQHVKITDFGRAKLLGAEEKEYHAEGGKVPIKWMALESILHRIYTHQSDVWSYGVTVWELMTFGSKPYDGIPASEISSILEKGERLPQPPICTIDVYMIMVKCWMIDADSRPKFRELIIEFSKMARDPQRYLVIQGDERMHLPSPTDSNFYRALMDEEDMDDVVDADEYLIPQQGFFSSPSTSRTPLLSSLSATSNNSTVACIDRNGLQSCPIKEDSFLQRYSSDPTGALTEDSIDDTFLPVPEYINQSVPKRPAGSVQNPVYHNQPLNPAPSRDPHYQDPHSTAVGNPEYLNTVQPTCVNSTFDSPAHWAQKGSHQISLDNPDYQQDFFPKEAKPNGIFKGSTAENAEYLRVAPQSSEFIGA
# assay: Biochemical EGFR kinase assay (Lance Ultra TR-FRET), L858R/C797S
# condition notes: Km ATP; read-out: IC50 L858R/C797S (nM) Km ATP
measured endpoint: IC50 (nM)

Below, each entry is followed by its recorded IC50 result.
- CC(C)Nc1cc(Nc2ccnc(-c3cnn(S(=O)(=O)C4CC4)c3)n2)ncc1F: 444
- O=C(c1cnc(Nc2ccnc(-c3cnn(S(=O)(=O)C4CC4)c3)n2)cc1NC[C@H]1CC[C@H](Cn2ccnc2)CC1)C1CC1: 24

[A] CC(=O)c1cnc(Nc2ccnc(-c3cnn(S(=O)(=O)C4CC4)c3)n2)cc1NC(C)(C)C(C)O (centres unmarked)
[B] CN(C)C1CCN(CCNc2cc(Nc3ccnc(-c4cnn(S(=O)(=O)C5CC5)c4)n3)ncc2C(=O)C2CC2)CC1
Challenge: Field: lower IC50 | Options: A / B Label of pick, please.
Response given: B

[I] CN(C)C[C@H]1CC[C@H](COc2cc(Nc3ccnc(-c4cnn(S(=O)(=O)C5CC5)c4)n3)ncc2C(=O)C2CC2)CC1
[II] O=C(c1cnc(Nc2ccnc(-c3cnn(S(=O)(=O)C4CC4)c3)n2)cc1NC1CCCN(CCF)C1)C1CC1 (centres unmarked)
Challenge: Hi there! Just curious which has the higher IC50 between I and II . Give the label of your selection.
Response given: I
(I: 101 nM, II: 19 nM)

[1] CN(C)Cc1ccc(CNc2cc(Nc3ccnc(-c4cnn(C(F)F)c4)n3)ncc2C(=O)C2CC2)cc1
[2] CN(C)C[C@H]1CC[C@H](CNc2cc(Nc3ccnc(-c4cnn(S(=O)(=O)C5CC5)c4)n3)ncc2C(=O)C2CC2)CC1
Challenge: IC50 comparison. Which is larger, 1 or 2 ? Write the label of whichever entry you select.
Response given: 1

###

# target system: EGFR del19/C797S (Homo sapiens, UniProt P00533, C797S/DEL746-750)
# Sequence (P00533 with tags, fused parts or gaps DEL746-750/C797S): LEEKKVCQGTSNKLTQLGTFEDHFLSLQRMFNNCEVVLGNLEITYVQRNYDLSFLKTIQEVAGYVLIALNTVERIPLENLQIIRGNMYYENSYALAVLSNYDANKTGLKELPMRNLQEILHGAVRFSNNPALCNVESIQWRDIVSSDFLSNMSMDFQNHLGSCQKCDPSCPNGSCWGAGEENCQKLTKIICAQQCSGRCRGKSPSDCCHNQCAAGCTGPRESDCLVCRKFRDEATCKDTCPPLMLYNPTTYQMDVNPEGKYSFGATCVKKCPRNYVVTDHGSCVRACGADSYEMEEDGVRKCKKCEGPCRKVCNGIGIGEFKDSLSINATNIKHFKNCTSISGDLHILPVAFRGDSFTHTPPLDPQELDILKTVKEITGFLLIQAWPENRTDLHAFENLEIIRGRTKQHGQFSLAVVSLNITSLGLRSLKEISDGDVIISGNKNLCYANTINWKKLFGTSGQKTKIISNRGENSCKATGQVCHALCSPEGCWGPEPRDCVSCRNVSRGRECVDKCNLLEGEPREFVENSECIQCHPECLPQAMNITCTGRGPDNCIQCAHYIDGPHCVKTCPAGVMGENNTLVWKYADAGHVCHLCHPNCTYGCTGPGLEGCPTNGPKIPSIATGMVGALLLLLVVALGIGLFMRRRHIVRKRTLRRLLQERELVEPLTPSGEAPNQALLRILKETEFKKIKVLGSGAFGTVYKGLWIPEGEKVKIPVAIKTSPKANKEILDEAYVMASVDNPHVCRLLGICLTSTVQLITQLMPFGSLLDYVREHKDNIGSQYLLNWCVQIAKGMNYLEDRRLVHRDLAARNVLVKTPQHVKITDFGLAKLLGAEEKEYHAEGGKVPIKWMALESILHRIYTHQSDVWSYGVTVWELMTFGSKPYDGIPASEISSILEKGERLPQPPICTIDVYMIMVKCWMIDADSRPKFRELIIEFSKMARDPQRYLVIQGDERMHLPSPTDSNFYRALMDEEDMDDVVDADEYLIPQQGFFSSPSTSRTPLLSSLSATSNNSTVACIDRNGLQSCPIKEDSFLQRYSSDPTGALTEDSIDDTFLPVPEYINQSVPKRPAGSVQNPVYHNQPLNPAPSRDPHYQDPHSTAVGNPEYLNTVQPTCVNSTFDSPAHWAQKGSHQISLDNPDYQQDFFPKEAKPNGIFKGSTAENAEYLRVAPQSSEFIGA
# assay: Biochemical EGFR kinase assay (Lance Ultra TR-FRET), del19/C797S
# condition notes: Km ATP; read-out: IC50 del19/C797S (nM) Km ATP
measured endpoint: IC50 (nM)

Some solved cases for reference:
• CN(C)Cc1ccc(CNc2cc(Nc3ccnc(-c4cnn(S(=O)(=O)C5CC5)c4)n3)ncc2C(=O)C2CC2)s1 [Example 20] = 415
• CN(C)Cc1ccc(CNc2cc(Nc3ccnc(-c4cnn(C(F)F)c4)n3)ncc2C(=O)C2CC2)cc1 [Example 16] = 13.2
• O=C(c1cnc(Nc2ccnc(-c3cnn(S(=O)(=O)C4CC4)c3)n2)cc1NCCCCF)C1CC1 [Example 4] = 83.6
• CN(C)C[C@H]1CC[C@H](CNc2cc(Nc3ccnc(-c4cn[nH]c4)n3)ncc2C(=O)C2CC2)CC1 [Example 59] = 207
• CN(C)CC1CCC(CNc2cc(Nc3ccnc(-c4cnn(C5CCOC5)c4)n3)ncc2C(=O)C2CC2)CC1 (stereo not drawn) [Example 62] = 363

[1] O=C(c1cnc(Nc2ccnc(-c3cnn(S(=O)(=O)C4CC4)c3)n2)cc1NCC1CCCCO1)C1CC1 (stereo not drawn) [Example 10]
[2] O=C(c1cnc(Nc2ccnc(-c3cnn(S(=O)(=O)C4CC4)c3)n2)cc1NCc1cnn(CCF)c1)C1CC1 [Example 17]
[3] CC(=O)c1cnc(Nc2ccnc(-c3cnn(S(=O)(=O)C4CC4)c3)n2)cc1NC(C)(C)C(C)O (stereo not drawn) [Example 46]
[4] CC(C)(O)[C@H]1CC[C@@H](Nc2cc(Nc3ccnc(-c4cnn(S(=O)(=O)C5CC5)c4)n3)ncc2C(=O)C(F)F)CC1 [Example 50]
Challenge: Sort the compounds on IC50; start with the lowest figure. To answer, write out the labels according to the requested order.
Response given: 2, 4, 3, 1

[a] CN(C)CCNc1cc(Nc2ccnc(-c3cnn(S(=O)(=O)C4CC4)c3)n2)ncc1C(=O)C1CC1 [Example 14]
[b] C[C@]1(O)CC[C@@H](Nc2cc(Nc3ccnc(-c4cnn(S(=O)(=O)C5CC5)c4)n3)ncc2C(=O)C(F)F)CC1 [Example 48]
[c] NC[C@H]1CC[C@H](CNc2cc(Nc3ccnc(-c4cnn(S(=O)(=O)C5CC5)c4)n3)ncc2C(=O)C2CC2)CC1 [Example 67]
Challenge: Falling order of IC50, please. Please list the labels according to the requested order.
Response given: a, b, c
(a: 459 nM, b: 15.7 nM, c: 0.7 nM)
